Would you mind telling me the reported apparent KD of MS2 coat protein of each entry?
test system: MS2 coat protein; experiment: apparent KD of MS2 coat protein; designed switch direction (-1 OFF switch, 1 ON switch): -1; higher = weaker reporter binding; details: Eterna round: R95; input ligand: microRNA oligo, concentration not stated

Quick one: give measured apparent KD of MS2 coat protein for GAGGAGCAAGGAUAUACGAGGAUAUGGAAGGUUGGAGAGUGACAUGAGGAUCACCCAUGUAGAAGGUGCAAGGG [JR_Exclu2_Sub096] (puzzle: Exclusion 2)
91.8 nM

Quick one: give measured apparent KD of MS2 coat protein for GUGUACGGAGGAUAUAUGUGGGCAGCAUACGCUGCAGCUUCACAUGAGGAUCACCCAUGUAGAAGGCUGUGCAC [JL-ex2-2.11 Brourd mod] (puzzle: Exclusion 2)
20.1 nM

Quick one: give measured apparent KD of MS2 coat protein for AUAUUACGAGGAUAUCGUUUUUUUCACAUGAGGAUCACCCAUGUUAUCCAUGUUUCGUUUCGAGAAGGCGUAAGUU [JR_E5_Sub070] (puzzle: Exclusion 5)
46.9 nM

Quick one: give measured apparent KD of MS2 coat protein for UCAUGUAUGUAGGAUAUCGAUGUCGAAAGACAUCGAGAAGGACGUACAUGAGGAUCACCCAUGUAACUUGCAUG [Exclusion 6 - B - 11:a] (puzzle: Exclusion 6)
18.8 nM

Quick one: give measured apparent KD of MS2 coat protein for AGUAGGUCUACCUUGGUGGAUCUGCAUUUAUGCAGGUGAACAUGAGGAUCACCCAUGUCCUCAUUUGCUCGUCUUAU [JL turnoff v2 99.28] (puzzle: Sensor v3, turn-off variant 2)
539 nM

Quick one: give measured apparent KD of MS2 coat protein for UUUUAACAUGAGGAUCACCCAUGUGAGGAUAUCGAAAUUUAUAUUUAUAUUAAUUUAUCGAGAAGGCACAUUUU [JMF 88] (puzzle: Exclusion 1)
166 nM

Quick one: give measured apparent KD of MS2 coat protein for GUGUACGAAGGAUAUACAUGAGGAUCACCCAUGUGAAUAAGAUAGAAUAAGAUAAAGUGUAGAAGGUCGAGUGU [Excluse me!!! 7 - Jieux - Exclusion 3] (puzzle: Exclusion 3)
27.1 nM

Quick one: give measured apparent KD of MS2 coat protein for GACCUCACGGUCAGGAUAUCAGAACGUAAUGCGCAUGAGAAGGGACAUGAGGAUCACCCAUGUGGGCUCGUCGC [Maedvequ] (puzzle: Brourd's mod of Exclusion 4)
11.8 nM

Quick one: give measured apparent KD of MS2 coat protein for UUUUAACAUGAGGAUCACCCAUGUGAGGAUAUCGAAAUUUAUAUUUAUAUUAAUUAUACGAGAAGGCACAUUUU [JMF 86] (puzzle: Exclusion 1)
65.5 nM

Quick one: give measured apparent KD of MS2 coat protein for UUUUUAUUUUUUUAUUUUGACAUGAGGAUCACCCAUGUAACGAGCAGAUCUUCAUGCAAGCUUUUUGCUCGUCUUAU [Sensor v3 - Turn-off variant 1 - 41] (puzzle: Sensor v3, turn-off variant 1)
15.5 nM

Quick one: give measured apparent KD of MS2 coat protein for UAUUUGCAAGGAUAUGAUUUAAGUAACAUGAGGAUCACCCAUGUUUAUCCGUUGUUAUGUUCAGAAGGUGCGUGAU [JR_E5_Sub019] (puzzle: Exclusion 5)
50.2 nM

Quick one: give measured apparent KD of MS2 coat protein for GCCUCACAUGAGGAUCACCCAUGUCAGGAUAUCUAAGGCGAGGUGCAGGCACUUCGUGAGAGAAGGGACGUCAA [Ercecequ] (puzzle: Exclusion 1)
18 nM

Quick one: give measured apparent KD of MS2 coat protein for GGUUGGCGAGGAUAUACAUGAGGAUCACCCAUGUGAGAGAAACUAGUGAGGUCGAUUGGUAGAAGGCGCUGACG [Mat - Exclusion 3 - Mod of JL D81] (puzzle: Exclusion 3)
204 nM

Quick one: give measured apparent KD of MS2 coat protein for AUAGGGUCAGGAUAUACGAGCAGGAGGAUGGAGCGGAGGCGGUAGAAGGGACAUGAGGAUCACCCAUGUAAGAA [JR_Exclu4_Sub052] (puzzle: Exclusion 4)
16.3 nM
